- Tested on: SKN-3 (Head and Neck Carcinoma);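 note: after 72 h of two-drug dosing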
- assay explanation: Bliss excess, mean over the matrix (fraction); higher = more synergy
attribute measured: Bliss excess
Note: the reply should be a number with no unit written.

Record excerpt, results attached:
Cc1c2c(nn1C)CSCc1cc(n(C)n1)CSc1cc(c3ccccc3c1)OCCCc1c(C(=O)O)n(C)c3c-2c(Cl)ccc13 [AZD5991] + C[C@@H]1COCCN1C2=NC(=NC(=C2)C3(CC3)[S@](=N)(=O)C)C4=C5C=CNC5=NC=C4 [AZD6738] (first compound max 1 µM, 7x7, partner max 10 µM); 0.0678
C[C@@H]1COCCN1c1cc(C2([S@](C)(=N)=O)CC2)nc(-c2ccnc3[nH]ccc23)n1 [AZD6738] + O=C(c1cc(Cc2n[nH]c(=O)c3ccccc23)ccc1F)N1CCN(C(=O)C2CC2)CC1 [Olaparib] (first compound max 10 µM, 7x7, partner max 10 µM); -0.0217
Cc1c2c(nn1C)CSCc1cc(n(C)n1)CSc1cc(c3ccccc3c1)OCCCc1c(C(=O)O)n(C)c3c-2c(Cl)ccc13 [AZD5991] + Cc1cc2ncnn2cc1Nc1ncc2c(n1)n(C1CCOCC1)c(=O)n2C [AZD7648] (first compound max 1 µM, 7x7, partner max 10 µM); -0.032

Moving on to the next compound.
Prompt line: Output Bliss excess of COc1cc2c(cc1OCCCCCOc1cc3c(cc1OC)C(=O)N1C=C(C)C[C@H]1C=N3)N=C[C@@H]1CC(C)=CN1C2=O [SG3199] + O=C(c1cc(Cc2n[nH]c(=O)c3ccccc23)ccc1F)N1CCN(C(=O)C2CC2)CC1 [Olaparib] (first compound max 0.001 µM, 7x7, partner max 10 µM)
Response line: -0.0276
